These measurements were taken from patent US7049289B1.

Entries and their measured Clot/blood follow.
- assay-method-text: Incorporation into clots induced in a rat model (rat inferior vena cava model)
- Format: in vivo, rat (Male Wistar)
- setup-conditions: Fresh Clots
*1 amine or outer side, *2 acyl side, *3 side chain or, on linkers, in order; H or OH if unused. Glutaryl = O=C(CCCC(=O)[*:2])[*:1]
# print the numeric value only

Below: 2 substances and their reported Clot/blood.
Pn216-CO(CH2)3CO-NQEQVSPYTLLKG-NH2 ({Pn216-Glutaryl}-NQEQVSPYTLLKG-NH2; also: 99mTc complex) [^99mTc-Cmpd 39] = 9
Ac-NQEQVSPYTLLKG-NH2 [^123I-Cmpd 2] = 7

Record request: Clot/blood value, item Ac-NQEQVSP(D-Y)TLL(D-K)G-Pn216 [^99mTc-Cmpd 29]
14

Which Clot/blood value is on record for Pn44-CO(CH2)3CO-NQEQVSPYTLLKG-NH2 ({Pn44-Glutaryl}-NQEQVSPYTLLKG-NH2; also: 99mTc complex) [^99mTc-Cmpd 38] ?
5

Query: Clot/blood; subject: Fmoc-NQEQVSP(I-Y)TLLKG-Pn216 [^99mTc-Cmpd 26]
16

Can you look up the measured Clot/blood of Ac-LGPGQSKVIG-Pn44 (also: 99mTc complex) [^99mTc-Cmpd 45] for me?
6
